molecular target: UniProt:Q9NPD5; details: chinese hamster, cho, 10 µM
Sequence (Q9NPD5 whole entry): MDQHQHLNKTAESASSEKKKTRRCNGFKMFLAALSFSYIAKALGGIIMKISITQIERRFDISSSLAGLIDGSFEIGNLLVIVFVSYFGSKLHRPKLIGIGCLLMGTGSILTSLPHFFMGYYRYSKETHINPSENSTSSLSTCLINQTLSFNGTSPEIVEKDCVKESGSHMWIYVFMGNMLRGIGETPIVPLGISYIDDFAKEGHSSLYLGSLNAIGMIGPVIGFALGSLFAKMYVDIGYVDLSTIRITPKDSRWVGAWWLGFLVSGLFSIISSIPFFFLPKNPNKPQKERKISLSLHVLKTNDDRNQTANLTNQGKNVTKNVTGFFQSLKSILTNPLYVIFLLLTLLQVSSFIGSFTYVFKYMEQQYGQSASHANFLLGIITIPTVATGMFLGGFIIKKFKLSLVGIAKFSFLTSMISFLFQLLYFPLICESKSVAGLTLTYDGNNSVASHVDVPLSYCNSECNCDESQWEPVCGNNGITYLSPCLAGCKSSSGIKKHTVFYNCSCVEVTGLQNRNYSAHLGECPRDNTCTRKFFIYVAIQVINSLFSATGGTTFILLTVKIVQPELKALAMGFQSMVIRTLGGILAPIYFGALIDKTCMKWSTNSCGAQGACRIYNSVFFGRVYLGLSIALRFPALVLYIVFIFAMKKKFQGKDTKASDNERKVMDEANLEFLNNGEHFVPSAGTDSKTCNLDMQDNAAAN
For each record, write down the corresponding residual activity.
The response must be a number in % with no trailing unit.

Prompt: Which residual activity is reported for this molecule? C[N+]1(C)CCCC(OC(=O)C(O)(c2ccccc2)c2ccccc2)C1.[Br-] (centres undefined) [MEPENZOLATE BROMIDE]
Response: 106.1

Prompt: Which residual activity is reported for this molecule? CCn1cc(C(=O)O)c(=O)c2cc3c(cc21)OCO3
Response: 87.39

Prompt: Which residual activity is reported for this molecule? CC(=O)O[C@H]1CC[C@@]2(C)C(=CC[C@H]3[C@@H]4CC[C@H]([C@H](C)CCCC(C)C)[C@@]4(C)CC[C@@H]32)C1
Response: 102.8

Prompt: Which residual activity is reported for this molecule? Cc1cccc(Nc2ccncc2S(=O)(=O)NC(=O)NC(C)C)c1 [TORSEMIDE]
Response: 73.29

Prompt: Which residual activity is reported for this molecule? Cl.N=c1ccn2c(n1)O[C@H]1[C@H](O)[C@@H](CO)O[C@H]12 [ANCITABINE HYDROCHLORIDE]
Response: 66.03

Prompt: Which residual activity is reported for this molecule? COc1c2ccccc2nc2occc12
Response: 118.6

Prompt: Which residual activity is reported for this molecule? COc1cc(/C=C/CO)ccc1O
Response: 66.12

Prompt: Which residual activity is reported for this molecule? COc1ccc(OC)c(C(O)CNC(=O)CN)c1.Cl (centres undefined) [MIDODRINE HYDROCHLORIDE]
Response: 88.99

Prompt: Which residual activity is reported for this molecule? OCCN1C[C@H](O)[C@@H](O)[C@H](O)[C@H]1CO
Response: 80.3

----------
biological target: Solute carrier organic anion transporter family member 1B1 (Homo sapiens, UniProt Q9Y6L6); settings: chinese hamster, cho, 10 µM
Sequence (Q9Y6L6 whole entry): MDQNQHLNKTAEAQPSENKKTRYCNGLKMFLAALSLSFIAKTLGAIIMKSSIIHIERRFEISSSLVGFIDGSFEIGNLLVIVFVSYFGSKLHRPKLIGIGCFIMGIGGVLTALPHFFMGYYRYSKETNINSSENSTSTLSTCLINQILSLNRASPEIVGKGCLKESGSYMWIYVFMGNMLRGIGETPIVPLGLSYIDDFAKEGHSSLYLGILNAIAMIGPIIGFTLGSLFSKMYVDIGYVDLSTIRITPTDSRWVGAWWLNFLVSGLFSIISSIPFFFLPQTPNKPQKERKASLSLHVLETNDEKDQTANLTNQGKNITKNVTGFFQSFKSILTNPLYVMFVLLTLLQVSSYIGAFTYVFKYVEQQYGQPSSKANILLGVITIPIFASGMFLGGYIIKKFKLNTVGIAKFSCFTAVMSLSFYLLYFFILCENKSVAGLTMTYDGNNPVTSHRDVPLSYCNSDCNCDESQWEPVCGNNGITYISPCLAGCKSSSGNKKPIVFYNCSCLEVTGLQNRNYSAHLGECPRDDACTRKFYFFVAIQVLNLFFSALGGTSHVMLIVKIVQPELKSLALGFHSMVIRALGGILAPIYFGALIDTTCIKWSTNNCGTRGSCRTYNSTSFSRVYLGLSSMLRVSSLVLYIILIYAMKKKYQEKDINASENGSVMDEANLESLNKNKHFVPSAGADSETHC
Residues, ends and D or L forms follow the SMILES beside them.
measured-endpoint: residual activity (%)
The response must be a number in % with no trailing unit.

Prompt: Which residual activity is reported for this molecule? Cc1coc2ccccc2c1=O
Response: 91.88

Prompt: Which residual activity is reported for this molecule? CC1/C(=N/O)C[C@@H]2C[C@H]1C2(C)C (stereo partly specified)
Response: 95.73

Prompt: Which residual activity is reported for this molecule? Cl.NCc1ccc(S(N)(=O)=O)cc1 [MAFENIDE HYDROCHLORIDE]
Response: 81.65

Prompt: Which residual activity is reported for this molecule? COC(=O)c1cc(O)c(=O)c2c(O)c(O)ccc2c1
Response: 48.16

Prompt: Which residual activity is reported for this molecule? CC1(C)C(=O)C=C[C@]2(C)[C@H]3CC[C@@]4(C)[C@H](c5ccoc5)OC(=O)[C@H]5O[C@]54[C@]3(C)C=C[C@@H]12
Response: 56.92

Prompt: Which residual activity is reported for this molecule? CCN1C[C@]2(COC)[C@H](O)C[C@H](OC)[C@@]34[C@@H]5C[C@@]6(O)[C@H](OC(=O)c7ccccc7)[C@@H]5[C@@](OC(C)=O)([C@@H]([C@H](OC)[C@H]23)[C@@H]14)[C@@H](O)[C@@H]6OC
Response: 65.77

Prompt: Which residual activity is reported for this molecule? CN(C)CCN(Cc1cccs1)c1ccccn1.Cl [METHAPYRILENE HYDROCHLORIDE]
Response: 83.03

Prompt: Which residual activity is reported for this molecule? C[C@H](CCC(=O)O)[C@H]1CC[C@H]2[C@@H]3[C@H](O)C[C@@H]4C[C@H](O)CC[C@]4(C)[C@H]3C[C@H](O)[C@]12C
Response: 99.52

Prompt: Which residual activity is reported for this molecule? Cc1ccc(/C(=C\CN2CCCC2)c2ccccn2)cc1.Cl
Response: 83.77

Prompt: Which residual activity is reported for this molecule? O=C(O)[C@]1(O)C[C@@H](O)[C@@H](O)[C@H](O)C1
Response: 95.08

Prompt: Which residual activity is reported for this molecule? COc1ccc(C[C@H](N)C(=O)N[C@H]2[C@@H](O)[C@H](n3cnc4c(N(C)C)ncnc43)O[C@@H]2CO)cc1.Cl.Cl [PUROMYCIN HYDROCHLORIDE]
Response: 95.86

Prompt: Which residual activity is reported for this molecule? N[C@@H](Cc1ccccc1)C(=O)N[C@@H](Cc1ccc(O)cc1)C(=O)O [PHENYLALANYLTYROSINE] (H-Phe-Tyr-OH)
Response: 78.59

Prompt: Which residual activity is reported for this molecule? C=CCCCCCCCCCCCC(O)CC(O)COC(C)=O (stereo unspecified)
Response: 125.1

Prompt: Which residual activity is reported for this molecule? CCCCCCCCCCCCCCCCCCOCC(O)CO (stereo unspecified)
Response: 92.94

Prompt: Which residual activity is reported for this molecule? COC(=O)C[C@H]1C(C)(C)[C@@H](O)[C@@H]2CC3=C4C=C(OC)O[C@@H](c5ccoc5)[C@]4(C)CCC3[C@@]1(C)C2=O (stereo partly specified)
Response: 27.18

Prompt: Which residual activity is reported for this molecule? Cc1cc(=O)oc2cc(O)cc(O)c12 [5,7-DIHYDROXY-4-METHYLCOUMARIN]
Response: 79.94
